System: Mycobacterium tuberculosis variant bovis
Experiment: GSK_TB: Effect of compound calculated as % inhibition at single shot or pIC50 ( pIC50 ATP assay M.bovis)
Format: functional, organism-based
Settings: BCG / Pasteur
For each entry below, report its IC50 value.
Numbers only, in µM.

CC(C)c1noc(N2CCC([C@H](C)Oc3cnc(-c4ccc(S(C)(=O)=O)c(F)c4)cn3)CC2)n1; 6.31
N#Cc1cc(C(F)(F)F)c2nc(C(=O)NCc3cccs3)c(Cl)n2c1; 6.31
O=C(NCc1ccco1)N1CCN(Cc2ccc3c(c2)CCO3)CC1; 2.51
c1ccc(-c2ncc(-c3ccc(OCCCn4ccnc4)cc3)s2)cc1; 7.94
CC1CC1c1ccc(CN2CCc3nc(Nc4ccccc4)sc3CC2)o1 (stereo not drawn); 6.31

Parameter requested: IC50. Apply to each item below.
1. Fc1cccc(Oc2cc(C3CCCNC3)nc(-c3ccncc3)n2)c1 (stereo not drawn)
2. COc1ccc(Nc2nc(N[C@@H]3CCNC3)nc3cc[nH]c(=O)c23)cc1NC(=O)c1ccccc1
3. NC(=O)c1cc2ccc(CC(=O)c3cccs3)cc2s1
4. O=C(Nc1nc2c(s1)CCCc1cccnc1-2)c1ccccc1C(F)(F)F

Reply text:
1: 12.6; 2: 5.01; 3: 15.8; 4: 2.51

Parameter requested: IC50. Apply to each item below.
1. O=C(O)CCc1nc2ccccc2oc1=O
2. N#Cc1ncn(-c2ccc3nnc(C(F)(F)F)n3n2)n1
3. FC(F)(F)c1nnc2ccc(Sc3nnc(-c4ccco4)o3)nn12
4. FC(F)(F)Oc1ccc(-c2cc3ccncc3cc2OC2CCNCC2)cc1
5. Nc1ccc(S(=O)(=O)Nc2ccnn2-c2ccccc2)cc1

Reply text:
1: 7.94; 2: 7.94; 3: 3.16; 4: 3.16; 5: 10

Parameter requested: IC50. Apply to each item below.
1. COc1ccc(-c2nnc3sc(Cc4csc(C)n4)nn23)cc1
2. NS(=O)(=O)c1ccc(Nc2cnc3ccccc3n2)cc1
3. COc1ccc(CCNC(=O)C2(n3cnnn3)CCCCC2)cc1
4. O=C(NCCO)c1c(O)c2ncc(Cc3ccc(F)cc3C(F)(F)F)cc2[nH]c1=O

Reply text:
1. 5.01
2. 6.31
3. 3.98
4. 5.01

* * *

Tested on: Mycobacterium tuberculosis variant bovis
Test: GSK_TB: Effect of compound calculated as % inhibition at single shot or pIC50 ( pIC50 ATP assay M.bovis)
Assay type: functional, organism-based
Conditions: BCG / Pasteur
valueKind: pIC50
Answers are plain numbers, as −log10 of the molar value.

Fc1ccc(Cc2nnc(-c3ccnc(Nc4ccc(OCCN5CCOCC5)cc4)n3)[nH]2)cc1; 5.10
CC(C)Oc1ccc(-c2nnc(-c3ccc4c(c3)CCNCC4)s2)cc1Cl; 5.60
Cc1ccc2c(c1)c(=O)cc(C(F)(F)F)n2CCNC(=O)c1ccccn1; 5.20

Parameter requested: pIC50. Apply to each item below.
1. Clc1nnc(N2CCCC2)c2ccccc12
2. Nc1ccc(C(O)CNCCc2ccccc2)cc1O (stereo unspecified)
3. CNc1snc(C)c1C(=O)NCCOc1ccc(OC)cc1
4. Cc1c(C(=O)NCCOc2ccccc2)[nH]c2c1C(=O)CCC2
5. N#Cc1cccc(-c2ccc(NC[C@H]3CC[C@]4(CC3)CN(c3cccnn3)C(=O)O4)nc2)c1

Reply text:
5.50
5.70
5.50
5.10
4.60

Parameter requested: pIC50. Apply to each item below.
1. COc1ccc(CN2CCN(C(=O)/C=C/c3csc(C)n3)CC2)cc1
2. CCCC/C=C/c1cc2ccncc2cc1OC1CCNCC1
3. CN(Cc1ccc(Cl)cc1)C(=O)CCc1nc2ccccc2oc1=O

Reply text:
1. 5.30
2. 5.60
3. 5.40

* * *

Tested on: Mycobacterium tuberculosis variant bovis
Assay: GSK_TB: Effect of compound calculated as % inhibition at single shot or pIC50 ( pIC50 ATP assay M.bovis)
Assay type: functional, organism-based
Conditions: BCG / Pasteur
Param label: returns 1.0 when IC50 < 4 µM, returns 0.0 otherwise, including exact equality.

COc1ccc(Nc2ncccc2N)cc1; 1.0
Cn1cc(CCNC(=O)Nc2ccc(N3CCCCC3)nc2)cn1; 0.0
O=C(NCc1ccoc1)N1CCN(Cc2ccc3c(c2)OCO3)CC1; 1.0
CCOCn1ccc(NS(=O)(=O)c2ccc(N)cc2)nc1=O; 1.0
CCCCc1ccc(C(=O)Nc2nnc(S(=O)(=O)CCCC)s2)nc1; 0.0
CCCCNCC1COc2ccc(OC)cc2C1=O (stereo not given); 0.0
NCC(c1cccs1)S(=O)(=O)c1ccccc1 (stereo not given); 0.0

Query compound follows.
Inquiry: Check if IC50 falls below 4 µM for `O=C(NCc1ccco1)N1CCN(Cc2ccc(Cl)s2)CC1` .
Reply text: 1.0

* * *

For each entry below, report its IC50 value.
Tested on: Mycobacterium tuberculosis variant bovis
Test: GSK_TB: Effect of compound calculated as % inhibition at single shot or pIC50 ( pIC50 ATP assay M.bovis)
Format: functional, organism-based
Settings: BCG / Pasteur
Answers are plain numbers, in µM.

Parameter requested: IC50. Apply to each item below.
1. CNc1nc(SC)nnc1-c1cccc(Cl)c1Cl
2. Cc1ccc2oc(SCC(=O)Nc3nccs3)nc2n1
3. CC(C)N(C(=O)CNc1ccccc1Nc1ccccc1)c1ccccc1
4. O=S(=O)(NCc1ccccc1)c1ccc(-c2cc3ccncc3cc2OC2CCNCC2)s1

Reply text:
1. 12.6
2. 6.31
3. 6.31
4. 2

Parameter requested: IC50. Apply to each item below.
1. NC(=O)c1ccc(CN(C2CC2)S(=O)(=O)c2ccccc2F)cc1
2. COC(=O)c1ccc(Oc2ccc(-c3csc(C)n3)cc2F)nn1

Reply text:
1. 12.6
2. 20

* * *

Tested on: Mycobacterium tuberculosis variant bovis
Experiment: GSK_TB: Effect of compound calculated as % inhibition at single shot or pIC50 ( pIC50 ATP assay M.bovis)
Type: functional, organism-based
Details: BCG / Pasteur
Param label: returns t when IC50 < 5 µM, returns f otherwise, including exact equality.

Check out these entries, answers already filled in.
CCOc1cc2ccccc2cc1C(=O)NC; f
Cc1nc(Nc2cnn(Cc3ccccc3F)c2)c2nn(C)c(C)c2n1; t
O=C(NCc1ccco1)N1CCN(Cc2cccs2)CC1; f

Query compound follows.
Inquiry: Check if IC50 falls below 5 µM for `Nc1ccccc1Nc1ccc(Cl)cc1` .
Reply text: t
